Target: Recombinant Human Anaplastic Lymphoma Kinase (Homo sapiens)
Construct: purchased Invitrogen, Carlsbad, Calif
Sequence (Q9UM73 19-1620): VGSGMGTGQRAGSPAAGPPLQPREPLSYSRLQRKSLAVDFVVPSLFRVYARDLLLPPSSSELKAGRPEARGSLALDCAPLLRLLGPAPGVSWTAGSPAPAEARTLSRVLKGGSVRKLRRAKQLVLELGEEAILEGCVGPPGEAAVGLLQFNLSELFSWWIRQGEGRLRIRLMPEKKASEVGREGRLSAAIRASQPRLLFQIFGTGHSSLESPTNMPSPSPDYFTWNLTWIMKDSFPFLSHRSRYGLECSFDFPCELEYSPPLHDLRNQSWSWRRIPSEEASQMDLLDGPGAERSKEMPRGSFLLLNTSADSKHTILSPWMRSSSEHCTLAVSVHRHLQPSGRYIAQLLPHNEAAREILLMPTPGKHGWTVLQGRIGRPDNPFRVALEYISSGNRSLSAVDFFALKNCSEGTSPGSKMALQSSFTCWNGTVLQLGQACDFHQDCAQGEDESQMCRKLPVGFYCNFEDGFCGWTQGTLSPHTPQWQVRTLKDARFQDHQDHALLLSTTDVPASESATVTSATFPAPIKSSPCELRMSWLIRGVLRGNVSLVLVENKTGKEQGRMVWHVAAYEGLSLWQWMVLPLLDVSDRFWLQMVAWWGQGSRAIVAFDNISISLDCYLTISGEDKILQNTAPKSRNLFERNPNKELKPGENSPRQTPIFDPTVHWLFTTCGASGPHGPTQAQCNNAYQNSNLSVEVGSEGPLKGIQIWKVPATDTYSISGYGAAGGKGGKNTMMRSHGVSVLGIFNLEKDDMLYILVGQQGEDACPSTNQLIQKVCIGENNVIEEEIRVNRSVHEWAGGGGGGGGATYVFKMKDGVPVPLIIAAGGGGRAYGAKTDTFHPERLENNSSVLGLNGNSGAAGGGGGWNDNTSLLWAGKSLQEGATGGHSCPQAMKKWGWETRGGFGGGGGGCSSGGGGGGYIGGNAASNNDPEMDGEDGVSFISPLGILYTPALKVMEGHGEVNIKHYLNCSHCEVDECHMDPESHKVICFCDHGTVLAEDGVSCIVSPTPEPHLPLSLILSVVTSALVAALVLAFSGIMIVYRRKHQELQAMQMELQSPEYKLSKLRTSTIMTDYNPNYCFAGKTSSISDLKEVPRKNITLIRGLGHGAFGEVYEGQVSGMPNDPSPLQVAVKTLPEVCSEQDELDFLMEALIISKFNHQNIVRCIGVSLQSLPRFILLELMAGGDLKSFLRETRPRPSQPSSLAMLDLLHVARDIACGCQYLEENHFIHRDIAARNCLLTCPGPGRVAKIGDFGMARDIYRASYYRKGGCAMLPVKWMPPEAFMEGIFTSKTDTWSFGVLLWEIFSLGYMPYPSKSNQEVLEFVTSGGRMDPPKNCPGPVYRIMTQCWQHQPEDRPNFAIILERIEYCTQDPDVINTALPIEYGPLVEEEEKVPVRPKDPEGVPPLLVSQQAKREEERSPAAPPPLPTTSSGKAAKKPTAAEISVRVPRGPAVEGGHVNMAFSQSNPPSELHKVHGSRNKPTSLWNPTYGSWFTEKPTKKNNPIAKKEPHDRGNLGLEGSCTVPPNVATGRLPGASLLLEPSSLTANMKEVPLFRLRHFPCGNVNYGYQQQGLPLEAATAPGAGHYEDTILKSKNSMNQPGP
Assay: ALK HTRF kinase assay
Assay type: biochemical
Conditions: compound at a concentration of 500 nM or 1 mM (not specified); cells shown as percentage
Structures can show the parent of a compound that is named as a salt.
Quick reference for ALK % of inhibition at a concentration of 500 nM or 1 mM among some compounds
Expressed in %, but write only the number.

Please provide the recorded ALK % of inhibition at a concentration of 500 nM or 1 mM for CNC(=O)N1CC[C@H](NC(=O)Nc2ccc3cc2CCc2cccc(c2)Nc2ncc(Cl)c(n2)N3)C1 [Example B169] , tested on Recombinant Human Anaplastic Lymphoma Kinase (Homo sapiens).
17

Please provide the recorded ALK % of inhibition at a concentration of 500 nM or 1 mM for OCc1ccc2cc1CCc1cccc(c1)Nc1ncc(Cl)c(n1)N2 [Example B23, trifluoroacetate] , tested on Recombinant Human Anaplastic Lymphoma Kinase (Homo sapiens).
75

Please provide the recorded ALK % of inhibition at a concentration of 500 nM or 1 mM for CC(=O)NCCNC(=O)Nc1ccc2cc1CCc1cccc(c1)Nc1ncc(Cl)c(n1)N2 [Example B186, trifluoroacetate] , tested on Recombinant Human Anaplastic Lymphoma Kinase (Homo sapiens).
21

Please provide the recorded ALK % of inhibition at a concentration of 500 nM or 1 mM for O=C(Nc1cccc(C(F)(F)F)c1)Nc1ccc2cc1CCc1cccc(c1)Nc1ncc(Cl)c(n1)N2 [Example B112, trifluoroacetate] , tested on Recombinant Human Anaplastic Lymphoma Kinase (Homo sapiens).
3.3

Please provide the recorded ALK % of inhibition at a concentration of 500 nM or 1 mM for O=C(NCCN1CCOCC1)Nc1ccc2cc1CCc1cccc(c1)Nc1ncc(Cl)c(n1)N2 [Example B254, bis(trifluoroacetate)] , tested on Recombinant Human Anaplastic Lymphoma Kinase (Homo sapiens).
18

Please provide the recorded ALK % of inhibition at a concentration of 500 nM or 1 mM for COCC(C)NC(=O)Nc1ccc2cc1CCc1cccc(c1)Nc1ncc(Cl)c(n1)N2 (stereo not shown) [Example B247] , tested on Recombinant Human Anaplastic Lymphoma Kinase (Homo sapiens).
7.5

Please provide the recorded ALK % of inhibition at a concentration of 500 nM or 1 mM for CCc1ccccc1NC(=O)Nc1ccc2cc1CCc1cccc(c1)Nc1ncc(Cl)c(n1)N2 [Example B97, trifluoroacetate] , tested on Recombinant Human Anaplastic Lymphoma Kinase (Homo sapiens).
40
